System: MOLT-4 leukemia
Assay: NCI tumour cell line growth inhibition, 48 h; in the data active = GI50 below about 0.43 µM; inactive = the rest
Labels: 1.0 = active, 0.0 = inactive

Mol: CC[C@]1(O)C[C@@H]2CN(CCc3c([nH]c4ccccc34)[C@@](C(=O)OC)(c3cc4c(cc3OC)N(C)[C@H]3[C@@](O)(C(N)=O)[C@H](O)[C@]5(CC)[C@@H]6C[C@@H]6CN6CC[C@]43[C@@H]65)C2)C1
Group: 1.0
--
Mol: COc1cc(/C=C2\CN(C(=O)CCN3CCC(=NO)CC3)C/C(=C\c3cc(OC)c(OC)c(OC)c3)C2=O)cc(OC)c1OC
Group: 1.0
--
Mol: Cc1cc2nc(-c3c(N)ncc(C#N)c3-c3ccc(Cl)cc3)[nH]c2cc1C
Group: 0.0
--
Mol: CC(=O)c1cc(-c2ccccc2N)n(-c2ccc3c(c2)OCO3)c1C
Group: 1.0
--
Mol: CCCCCCNC(=O)n1cc(F)c(=O)[nH]c1=O
Group: 0.0

---

Tested on: A549 NSCLC
Test: NCI tumour cell line growth inhibition, 48 h; in the data active = GI50 below about 0.43 µM; inactive = the rest
Outcome codes: true (1) = active, false (0) = inactive

Compound: COC(=O)c1ccc2c(c1)C(=O)c1c-2n(CCCN)c(=O)c2cc(OC)c(OC)cc12
Group: false (0)
//
Compound: COc1ccc([C@@H](O)c2cc(-c3ncnc4cc(N5CCOCC5)ccc34)c(F)cc2Cl)nn1
Group: false (0)
//
Compound: CCC1(OC(=O)CN)C(=O)OCc2c1cc1n(c2=O)Cc2cc3cc4c(cc3nc2-1)OCO4 (stereo not drawn)
Group: true (1)
//
Compound: COc1cc(/C=C2\CN(C(=O)CCN3CCC(=NO)CC3)C/C(=C\c3cc(OC)c(OC)c(OC)c3)C2=O)cc(OC)c1OC
Group: false (0)
//
Compound: CCOC(=O)c1c2c(n(Cc3ccccc3)c1C)-c1nc(Cc3ccccc3)[nH]c1C(=O)C2=O
Group: false (0)
//
Compound: CC[C@@]12C=CCN3CC[C@]4(c5cc(NC(=O)COc6cc(OCC(=O)Nc7cc8c(cc7OC)N(C)[C@H]7[C@@](O)(C(=O)OC)[C@H](OC(C)=O)[C@]9(CC)C=CCN%10CC[C@]87[C@@H]%109)cc7oc(-c8ccccc8)cc(=O)c67)c(OC)cc5N(C)[C@@H]4[C@](O)(C(=O)OC)[C@H]1OC(C)=O)[C@H]32
Group: false (0)
//
Compound: CC12CC=CCC1CCC1C2CCC2(C)C(c3ccc(=O)oc3)CCC12O (stereo not drawn)
Group: true (1)
//
Compound: O=C(Nc1ccc(Br)cc1)Nc1nn(C(=O)Nc2ccc(Br)cc2)c2ccccc12
Group: false (0)

---

System: T-47D breast
Test: NCI tumour cell line growth inhibition, 48 h
Parameter: TGI

Compound: CCCCN(CC)c1ncnc2ccc(Br)cc12
Reported measurement: > 100 µM
--
Compound: COc1ccc([C@@H](O)c2cc(-c3ncnc4cc(N5CCOCC5)ccc34)c(F)cc2Cl)nn1
Reported measurement: 1.44 µM
--
Compound: O=[N+]([O-])c1cc(F)ccc1Sc1ccccc1
Reported measurement: > 10 µM
--
Compound: O=C(O)COc1cc(-c2ccccc2)nc2ccccc12
Reported measurement: > 100 µM
--
Compound: COc1cc2c3c(c1OC)C1(C=CC(=O)C=C1)CC3NCC2 (centres undefined)
Reported measurement: > 100 µM
--
Compound: COC(=O)c1cc(C)ccc1/C=C1\Cc2c(C)cc(C)cc2C1=O
Reported measurement: > 100 µM
--
Compound: Nc1ccc2c(c1)NC(=O)[C@@H]1CCCN1C2=O
Reported measurement: > 100 µM
--
Compound: CC1(C)C=[N+]([O-])C(C)(C)N1O
Reported measurement: > 10 µM
--
Compound: COc1cc(S(=O)(=O)Nc2ccc(-c3csc(/N=C\c4ccccc4)n3)cc2)ccc1Cl
Reported measurement: > 100 µM
--
Compound: CCCCCCNC(=O)n1cc(F)c(=O)[nH]c1=O
Reported measurement: 47.5 µM
--
Compound: CC1(C)[C@@H](OC(N)=O)C=C[C@]2(CO)[C@H]3CC[C@]4(C)[C@@H](c5ccc(=O)oc5)[C@@H](Cl)C[C@]4(O)C3=CC[C@@H]12
Reported measurement: 0.0326 µM
--
Compound: COc1cccc(NC(=O)CC(=O)N2N=C(C)C(N=Nc3ccc(C(=O)O)cc3)C2=O)c1 (centres undefined)
Reported measurement: > 100 µM
--
Compound: Cn1c2ccc(C3=NCCN3)cc2c2cc(C3=NCCN3)ccc21
Reported measurement: > 100 µM
--
Compound: COc1cc2c(cc1OC)C(=O)/C(=C/c1ccc(O)cc1)CC2
Reported measurement: > 10 µM
--
Compound: CCOC(=O)Cc1csc(N=Nc2c(O)[nH]c3ccccc23)n1
Reported measurement: > 100 µM
--
Compound: Cc1nc(Nc2nc3ccccc3[nH]2)nc(Cl)c1CCCl
Reported measurement: > 100 µM
--
Compound: COC(=O)[C@H]1[C@H]2C[C@@H]3c4[nH]c5cc(OC)ccc5c4CCN3C[C@H]2C[C@@H](OC(=O)/C=C/c2cc(OC)c(OC)c(OC)c2)[C@@H]1OC
Reported measurement: 9.54 µM
--
Compound: Cc1ccc2sc3ccc(N)cc3c(=O)c2c1
Reported measurement: 78.5 µM
--
Compound: CC1=NN2C(=N)/C(=C/c3ccccc3)C(=O)N=C2S1
Reported measurement: > 100 µM
--
Compound: COc1cccc(C23CCCC(C2)N(C)CC3OC(=O)c2ccccc2)c1OC (centres undefined)
Reported measurement: 81.2 µM
--
Compound: O=C(O)c1cccc(/C=C/c2ccccc2)c1
Reported measurement: > 100 µM
--
Compound: CCN(CC)C1Oc2cc3c(cc2C(c2cc(OC)c(OC)c(OC)c2)C1C)OCO3 (centres undefined)
Reported measurement: > 88.7 µM
--
Compound: Cc1ccc(/C=C2/NC(=S)SC2=O)cc1
Reported measurement: > 100 µM
--
Compound: Cc1nc2cccc(F)c2c(=O)n1-c1nnc(C(F)(F)F)s1
Reported measurement: > 10 µM

Values from PubChem BioAssay (NCI)
